MEASURED_TARGET: T1, murine GPC3-his protein (Sino Biological, Cat. No. 50989-M08B) (murine, UniProt Q8CFZ4 25-558)
T1 construct: Bought protein; also called murine GPC3 protein
T1 sequence (Q8CFZ4 25-558 limits assumed): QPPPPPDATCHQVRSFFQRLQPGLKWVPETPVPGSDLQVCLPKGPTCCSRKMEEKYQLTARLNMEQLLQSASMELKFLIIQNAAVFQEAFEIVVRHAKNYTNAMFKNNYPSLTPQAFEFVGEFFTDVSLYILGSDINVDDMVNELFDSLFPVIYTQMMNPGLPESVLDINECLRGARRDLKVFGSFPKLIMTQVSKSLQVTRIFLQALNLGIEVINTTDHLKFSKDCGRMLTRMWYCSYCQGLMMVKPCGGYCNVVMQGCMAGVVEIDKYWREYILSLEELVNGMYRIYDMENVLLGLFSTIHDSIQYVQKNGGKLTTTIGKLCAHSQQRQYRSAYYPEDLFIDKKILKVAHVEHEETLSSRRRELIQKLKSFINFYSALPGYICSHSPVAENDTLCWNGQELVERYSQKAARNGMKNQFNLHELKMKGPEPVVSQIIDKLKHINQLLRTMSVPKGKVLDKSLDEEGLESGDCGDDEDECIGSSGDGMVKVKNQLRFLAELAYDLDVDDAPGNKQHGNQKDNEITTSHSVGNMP
ASSAY_EXPLANATION: ELISA, coated murine GPC3-His;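 further: antigen coated on plates at 1 µg/mL, test antibody bound for 2 h at 37 °C, detected with HRP-conjugated secondary antibody and TMB substrate after acid stop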
RECORDED_METRIC: OD450 at 1 nM antibody (OD450 nm)
Reply numerically in OD450 nm, unit not repeated.

binder="F1.2.14 human-murine chimeric antibody (antibody, human IgG1, kappa, V domains shown) VH: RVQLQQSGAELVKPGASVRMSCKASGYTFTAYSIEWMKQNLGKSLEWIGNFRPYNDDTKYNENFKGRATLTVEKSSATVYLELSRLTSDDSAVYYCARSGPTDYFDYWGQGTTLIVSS VL: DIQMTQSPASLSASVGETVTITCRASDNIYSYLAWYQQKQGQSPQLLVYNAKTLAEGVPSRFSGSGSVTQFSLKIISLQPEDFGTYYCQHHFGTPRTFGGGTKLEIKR" unit_descriptor="OD450 nm" observed_measurement=0.46

Pending binder:
Endpoint output: OD450 at 1 nM antibody of F4.26.1 human-murine chimeric antibody (antibody, human IgG1, kappa, V domains shown) VH: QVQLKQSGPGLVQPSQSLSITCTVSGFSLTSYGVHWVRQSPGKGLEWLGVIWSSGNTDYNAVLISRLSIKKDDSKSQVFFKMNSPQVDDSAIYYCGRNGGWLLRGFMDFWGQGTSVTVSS VL: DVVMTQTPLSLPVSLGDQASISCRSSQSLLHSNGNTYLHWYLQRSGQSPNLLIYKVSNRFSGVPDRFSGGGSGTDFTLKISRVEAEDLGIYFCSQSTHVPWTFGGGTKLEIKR . Value?
0.98
